Target: NAMPT (Homo sapiens)
Construct: His tag; host or cells: E. coli
Sequence (P43490 whole entry): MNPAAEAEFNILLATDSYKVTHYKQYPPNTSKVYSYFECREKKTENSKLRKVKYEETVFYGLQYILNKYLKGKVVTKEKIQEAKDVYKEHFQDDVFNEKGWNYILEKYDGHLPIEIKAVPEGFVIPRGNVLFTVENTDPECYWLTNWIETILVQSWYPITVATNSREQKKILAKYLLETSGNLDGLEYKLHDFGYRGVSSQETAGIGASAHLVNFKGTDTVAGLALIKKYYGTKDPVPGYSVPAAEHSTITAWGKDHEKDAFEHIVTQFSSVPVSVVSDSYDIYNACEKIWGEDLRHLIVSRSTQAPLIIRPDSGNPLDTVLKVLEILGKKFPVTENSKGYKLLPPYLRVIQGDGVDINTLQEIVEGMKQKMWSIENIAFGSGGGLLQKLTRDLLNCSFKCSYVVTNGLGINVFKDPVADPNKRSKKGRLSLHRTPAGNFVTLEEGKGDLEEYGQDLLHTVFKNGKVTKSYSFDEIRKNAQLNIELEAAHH
Assay: Biochemical inhibition assay: NAMPT enzymatic reaction, NMN quantified by mass spectrometry
Conditions: NAMPT enzymatic assay; read-out: Biochem IC50
Using IC50 as the sorting value, the categories are low-valued: < 3 nM; mid-valued: ≥ 3 nM and < 10 nM; high-valued: ≥ 10 nM

O=C(NCc1ccc(S(=O)(=O)c2ccc(C(F)(F)F)c(Cl)c2)cc1)c1cc2cnccc2[nH]1 ... high-valued
O=C(NCc1ccc(S(=O)(=O)c2nccs2)cc1)c1cc2ccncc2s1 ... high-valued
O=C(NCc1ccc(S(=O)(=O)c2cnc3ccc(Cl)cn23)cc1)c1ccc2nccn2c1 ... mid-valued
O=C(NCc1ccc(S(=O)(=O)c2cnc3ccc(Cl)cn23)cc1)c1cnc2[nH]ncc2c1 ... mid-valued
Cc1nc(-c2cccc(S(=O)(=O)c3ccc(CNC(=O)c4cc5ccncc5o4)cc3)c2)no1 ... mid-valued
O=C(NCc1ccc(S(=O)(=O)c2ccc(OCC(F)(F)F)c(F)c2)cc1)c1cnc2[nH]ncc2c1 ... high-valued
O=C(NCc1ccc(S(=O)(=O)c2csc(-c3cccc(F)c3)n2)cc1)c1cc2ccncc2o1 ... high-valued
Cn1cc2ccc(S(=O)(=O)c3ccc(CNC(=O)c4cnc5nccn5c4)cc3)cc2n1 ... low-valued

Exam item: assign `Cn1ncc2cc(S(=O)(=O)c3ccc(CNC(=O)c4cc5ccncc5s4)cc3)ccc21` to the correct category.
low-valued
